assayedTarget: β-Glucuronidase (Bos taurus, UniProt A3KMY8)
Construct: purchased Sigma-Aldrich Chemical Co; host or cells: bovine liver
Sequence (A3KMY8 1-652): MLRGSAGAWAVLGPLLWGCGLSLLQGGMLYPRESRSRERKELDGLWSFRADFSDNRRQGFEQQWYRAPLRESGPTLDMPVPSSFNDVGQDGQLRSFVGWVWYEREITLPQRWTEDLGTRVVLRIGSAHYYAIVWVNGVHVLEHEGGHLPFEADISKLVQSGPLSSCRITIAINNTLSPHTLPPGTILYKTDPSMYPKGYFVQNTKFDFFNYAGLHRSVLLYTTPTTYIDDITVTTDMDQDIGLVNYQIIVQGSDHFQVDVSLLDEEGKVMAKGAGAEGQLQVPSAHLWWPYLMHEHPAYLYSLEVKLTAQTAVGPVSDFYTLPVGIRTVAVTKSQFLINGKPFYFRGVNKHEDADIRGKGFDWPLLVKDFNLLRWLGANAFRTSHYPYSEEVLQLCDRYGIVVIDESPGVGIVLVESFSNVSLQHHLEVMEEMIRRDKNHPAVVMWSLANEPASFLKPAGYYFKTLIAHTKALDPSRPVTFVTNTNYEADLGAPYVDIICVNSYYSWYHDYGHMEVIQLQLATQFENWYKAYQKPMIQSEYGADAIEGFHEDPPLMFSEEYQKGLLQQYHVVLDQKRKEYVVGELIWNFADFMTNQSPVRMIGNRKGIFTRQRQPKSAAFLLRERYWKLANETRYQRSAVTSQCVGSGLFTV
methodDescription: glycosidase inhibition assay, bovine liver β-glucuronidase
Format: biochemical
Method: With rat intestinal maltase as an exception, other enzymes were purchased from Sigma-Aldrich Chemical Co. (St. Louis, Mo. USA). […] The released D-glucose was determined colorimetrically using the Glucose CII-test Wako (Wako Pure Chemical Ind.; Osaka, Japan). Other glycosidase activities were determined using an appropriate p-nitrophenyl glycoside as substrate in a buffer solution at the optimal pH value of each enzyme. […] The released p-nitrophenol was measured spectrometrically at 400 nm.
Consider the following molecules and their measured inhibition at 100 µM readings.
assayReadout: inhibition at 100 µM (%)

> print(dat)
                                   molecule          assayreadout  scaleunit  observedresult
1  OCCC[C@@H](O)CCCCCCCCC[C@@H]1N[C@@H](CO)[C@H](O)[C@H]1O [ent-10’-epi-3]  inhibition at 100 µM          %            14.9
2  OCCC[C@@H](O)CCCCCCCCC[C@@H]1N[C@@H](CO)[C@@H](O)[C@H]1O [ent-3,10-di-epi-3]  inhibition at 100 µM          %            14.9
3  OCCCC(O)CCCCCCCCCC1NC(CO)C(O)C1O (stereo not drawn) [2,10-di-epi-3]  inhibition at 100 µM          %             1.7
4  OCCC[C@H](O)CCCCCCCCC[C@@H]1N[C@@H](CO)[C@H](O)[C@H]1O  inhibition at 100 µM          %             2.3
5  OCCC[C@@H](O)CCCCCCCCC[C@H]1N[C@@H](CO)[C@@H](O)[C@@H]1O [2-epi-3]  inhibition at 100 µM          %             5.2
6  OCCC[C@@H](O)CCCCCCCCC[C@H]1N[C@H](CO)[C@@H](O)[C@@H]1O  inhibition at 100 µM          %            18.4
7  OCCC[C@H](O)CCCCCCCCC[C@H]1N[C@H](CO)[C@@H](O)[C@@H]1O [10’-epi-3]  inhibition at 100 µM          %            17.2
8  OCCC[C@H](O)CCCCCCCCC[C@@H]1N[C@@H](CO)[C@@H](O)[C@H]1O [ent-3-epi-3]  inhibition at 100 µM          %               0

---

assayedTarget: α-L-Fucosidase (Bos taurus, UniProt Q2KIM0)
Construct: purchased Sigma-Aldrich Chemical Co; host or cells: bovine kidney
Sequence (Q2KIM0 23-468): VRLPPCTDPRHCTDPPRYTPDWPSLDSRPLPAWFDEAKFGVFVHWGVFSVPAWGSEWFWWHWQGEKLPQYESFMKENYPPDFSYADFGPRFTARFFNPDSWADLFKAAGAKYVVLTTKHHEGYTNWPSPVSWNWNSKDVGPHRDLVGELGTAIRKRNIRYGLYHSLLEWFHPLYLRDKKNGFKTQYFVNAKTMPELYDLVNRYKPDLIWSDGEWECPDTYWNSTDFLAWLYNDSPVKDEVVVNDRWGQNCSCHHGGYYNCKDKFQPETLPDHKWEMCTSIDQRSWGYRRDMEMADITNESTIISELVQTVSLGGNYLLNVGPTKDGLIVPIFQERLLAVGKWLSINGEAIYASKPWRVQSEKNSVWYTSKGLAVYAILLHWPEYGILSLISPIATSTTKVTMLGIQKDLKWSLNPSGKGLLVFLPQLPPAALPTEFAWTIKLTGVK
methodDescription: glycosidase inhibition assay, bovine kidney α-L-fucosidase
Assay type: biochemical
pIC50: −log10 of the molar value.
assayReadout: pIC50

> print(dat)
                                   molecule                             assayedtarget  observedresult
1  OCCC[C@@H](O)CCCCCCCCC[C@@H]1N[C@@H](CO)[C@@H](O)[C@H]1O [ent-3,10-di-epi-3]  α-L-Fucosidase (Bos taurus, UniProt Q2KIM0)            4.01
2  OCCC[C@@H](O)CCCCCCCCC[C@H]1N[C@H](CO)[C@@H](O)[C@@H]1O  α-L-Fucosidase (Bos taurus, UniProt Q2KIM0)          < 4.00
3  OCCCC(O)CCCCCCCCCC1NC(CO)C(O)C1O (stereo not drawn) [2,10-di-epi-3]  α-L-Fucosidase (Bos taurus, UniProt Q2KIM0)          < 4.00
4  OCCC[C@@H](O)CCCCCCCCC[C@@H]1N[C@@H](CO)[C@H](O)[C@H]1O [ent-10’-epi-3]  α-L-Fucosidase (Bos taurus, UniProt Q2KIM0)          < 4.00
5  OCCC[C@H](O)CCCCCCCCC[C@H]1N[C@H](CO)[C@@H](O)[C@@H]1O [10’-epi-3]  α-L-Fucosidase (Bos taurus, UniProt Q2KIM0)          < 4.00
6  OCCC[C@H](O)CCCCCCCCC[C@@H]1N[C@@H](CO)[C@@H](O)[C@H]1O [ent-3-epi-3]  α-L-Fucosidase (Bos taurus, UniProt Q2KIM0)            4.30
7  OCCC[C@H](O)CCCCCCCCC[C@@H]1N[C@@H](CO)[C@H](O)[C@H]1O  α-L-Fucosidase (Bos taurus, UniProt Q2KIM0)          < 4.00
8  OCCC[C@@H](O)CCCCCCCCC[C@H]1N[C@@H](CO)[C@@H](O)[C@@H]1O [2-epi-3]  α-L-Fucosidase (Bos taurus, UniProt Q2KIM0)          < 4.00
